experiment: Drug uptake in rat 9L tumor implanted in Fischer 344 rat after 30 mins relative to control; assay type: ADME, Neoplasm; conditions: read-out: Drug uptake
property-label: tissue uptake at 0.5 h (%ID/g)
State the answer as a number, implicitly in %ID/g.

[Q] What does the data say about its tissue uptake at 0.5 h? Entry: N[C@@]1(C(=O)O)CC[C@@H]1[18F]
[A] 0.66

----------
assay: Ratio of drug level in Fisher 344 rat brain to rat 9L tumor cells implanted in Fisher 344 rat after 30 mins; format: ADME, cell-based; conditions: 0.5 h
property-label: Ratio
Reply briefly: the number, and no unit.

{"molecule-smiles": "N[C@]1(C(=O)O)C[C@H]([18F])C1", "val": 7.6}

[Q] Which Ratio is listed for N[C@@]1(C(=O)O)CC[C@@H]1[18F] ?
[A] 17

----------
assay: Ratio of drug level in Fisher 344 rat brain to rat 9L tumor cells implanted in Fisher 344 rat after 30 mins; assay type: ADME, cell-based; conditions: 0.5 h
property-label: Ratio
Quick one: just the number, no unit, thanks!

In the examples that follow, each entry is paired with its recorded Ratio.
{"molecule": "N[C@]1(C(=O)O)C[C@@H](C[18F])C1", "Ratio": 8.9}
{"molecule": "N[C@]1(C(=O)O)C[C@H](C[18F])C1", "Ratio": 6.9}

The record that follows has no Ratio shown yet.
[Q] I'd like to know its Ratio. The molecule in question is N[C@]1(C(=O)O)C[C@@H]([18F])C1 [FLUCICLOVINE F18]
[A] 6.6
